Target Under Test: human α1I T-type channels (Homo sapiens)
Sequence (Q9P0X4 whole entry): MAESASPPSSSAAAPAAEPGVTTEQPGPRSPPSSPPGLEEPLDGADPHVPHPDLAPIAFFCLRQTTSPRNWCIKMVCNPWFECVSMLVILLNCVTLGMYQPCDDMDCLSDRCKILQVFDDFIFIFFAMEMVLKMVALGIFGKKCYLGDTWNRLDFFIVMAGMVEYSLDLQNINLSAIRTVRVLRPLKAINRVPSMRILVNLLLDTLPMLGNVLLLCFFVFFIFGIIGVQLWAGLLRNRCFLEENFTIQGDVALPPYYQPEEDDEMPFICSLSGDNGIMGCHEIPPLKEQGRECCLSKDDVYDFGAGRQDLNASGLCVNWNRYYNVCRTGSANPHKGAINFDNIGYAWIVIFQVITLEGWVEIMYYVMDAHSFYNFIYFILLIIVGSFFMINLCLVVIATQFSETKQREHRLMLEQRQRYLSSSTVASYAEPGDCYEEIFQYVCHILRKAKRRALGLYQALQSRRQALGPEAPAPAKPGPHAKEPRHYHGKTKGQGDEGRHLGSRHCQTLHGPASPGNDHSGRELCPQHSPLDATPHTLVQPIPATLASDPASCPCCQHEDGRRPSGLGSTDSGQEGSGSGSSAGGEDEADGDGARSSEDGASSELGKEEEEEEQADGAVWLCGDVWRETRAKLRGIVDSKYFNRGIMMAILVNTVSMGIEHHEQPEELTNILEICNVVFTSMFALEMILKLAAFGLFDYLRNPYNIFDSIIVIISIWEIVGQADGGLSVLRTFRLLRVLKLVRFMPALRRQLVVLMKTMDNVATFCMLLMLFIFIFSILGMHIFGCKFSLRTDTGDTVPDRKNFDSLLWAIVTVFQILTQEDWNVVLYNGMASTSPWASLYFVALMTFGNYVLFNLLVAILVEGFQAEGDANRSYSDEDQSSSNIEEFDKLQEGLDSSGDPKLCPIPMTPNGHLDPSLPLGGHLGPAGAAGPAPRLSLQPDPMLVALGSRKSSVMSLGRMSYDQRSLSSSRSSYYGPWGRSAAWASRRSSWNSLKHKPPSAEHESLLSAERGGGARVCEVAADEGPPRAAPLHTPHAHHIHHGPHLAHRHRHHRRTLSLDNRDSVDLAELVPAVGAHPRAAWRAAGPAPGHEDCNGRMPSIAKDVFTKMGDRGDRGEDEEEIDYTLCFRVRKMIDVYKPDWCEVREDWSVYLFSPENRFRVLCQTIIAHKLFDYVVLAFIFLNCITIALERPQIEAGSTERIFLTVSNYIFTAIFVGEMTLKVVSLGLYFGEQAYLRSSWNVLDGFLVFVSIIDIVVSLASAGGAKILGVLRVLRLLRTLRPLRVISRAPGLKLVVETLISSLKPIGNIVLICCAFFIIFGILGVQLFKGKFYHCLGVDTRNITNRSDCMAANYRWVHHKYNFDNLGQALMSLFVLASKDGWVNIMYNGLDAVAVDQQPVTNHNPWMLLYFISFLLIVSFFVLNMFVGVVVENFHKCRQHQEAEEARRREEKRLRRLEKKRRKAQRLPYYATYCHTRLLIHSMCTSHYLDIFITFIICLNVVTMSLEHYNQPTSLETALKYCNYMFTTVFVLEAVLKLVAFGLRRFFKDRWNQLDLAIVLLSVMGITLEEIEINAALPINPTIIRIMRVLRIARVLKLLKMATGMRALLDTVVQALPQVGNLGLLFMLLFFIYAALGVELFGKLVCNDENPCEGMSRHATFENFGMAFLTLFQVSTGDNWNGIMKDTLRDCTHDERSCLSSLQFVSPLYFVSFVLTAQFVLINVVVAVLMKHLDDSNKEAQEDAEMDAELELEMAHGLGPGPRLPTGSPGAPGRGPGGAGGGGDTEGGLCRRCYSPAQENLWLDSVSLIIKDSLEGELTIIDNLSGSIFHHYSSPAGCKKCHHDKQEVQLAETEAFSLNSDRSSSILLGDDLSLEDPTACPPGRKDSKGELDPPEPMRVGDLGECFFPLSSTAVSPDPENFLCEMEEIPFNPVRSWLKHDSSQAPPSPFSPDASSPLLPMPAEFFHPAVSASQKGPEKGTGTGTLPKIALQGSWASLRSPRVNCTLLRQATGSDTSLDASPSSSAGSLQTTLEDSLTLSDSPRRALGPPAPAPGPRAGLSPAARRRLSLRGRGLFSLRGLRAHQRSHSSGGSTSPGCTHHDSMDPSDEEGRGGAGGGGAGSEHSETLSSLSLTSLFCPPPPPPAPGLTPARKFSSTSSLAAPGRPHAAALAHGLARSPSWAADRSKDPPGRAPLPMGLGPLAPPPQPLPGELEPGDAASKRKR
Test Details: T-type calcium channel block, whole cell patch clamp in HEK cells
Condition Info: HEK cells stably expressing human α1I; measured at 1 μM drug; mainly non-inactivated protocol
Threshold 2000 nM. Kd below it: MET. Kd at it or above: NOT MET.

Some solved cases for reference:
Problem: Kd under 2000 nM? Item: Cc1c(C(=O)N2CCN(c3ccc(Cl)cc3)CC2)sc2ncn(CC(=O)NC3CCCC3)c(=O)c12
Result: NOT MET

Problem: Does Cc1c(C(=O)N2CCN(c3ccc(Cl)c(C(F)(F)F)c3)CC2)sc2ncn(CC(=O)NC3CCCC3)c(=O)c12 have Kd strictly under 2000 nM?
Result: NOT MET

Next:
Problem: Is the reported Kd for Cc1c(C(=O)N2CCN(c3ccccc3F)CC2)sc2ncn(CC(=O)Nc3cccc(C(F)(F)F)c3)c(=O)c12 strictly below 2000 nM?
Result: MET

Problem: Regarding Cc1c(C(=O)N2CCN(c3ccccc3F)CC2)sc2ncn(CC(=O)Nc3cc(C(F)(F)F)cc(C(F)(F)F)c3)c(=O)c12 , kindly confirm whether its Kd is beneath 2000 nM.
Result: MET

Problem: Field: below-cutoff. Rule: recorded Kd strictly less than 2000 nM. Subject: Cc1c(C(=O)N2CCN(c3ccc(Cl)c(Cl)c3)CC2)sc2ncn(CC(=O)N3CCCC3)c(=O)c12
Result: MET

Problem: Determine whether this molecule shows Kd lower than 2000 nM (ties excluded): Cc1c(C(=O)N2CCN(c3cccc(Cl)c3)CC2)sc2ncn(CC(=O)NC3CCCC3)c(=O)c12
Result: NOT MET

Problem: Is it true that Kd reported for Cc1c(C(=O)N2CCN(c3ccccc3F)CC2)sc2ncn(CC(=O)NC3CCCCC3)c(=O)c12 is less than 2000 nM?
Result: NOT MET

---

Target Under Test: human α1H T-type channels (Homo sapiens)
Sequence (O95180 whole entry): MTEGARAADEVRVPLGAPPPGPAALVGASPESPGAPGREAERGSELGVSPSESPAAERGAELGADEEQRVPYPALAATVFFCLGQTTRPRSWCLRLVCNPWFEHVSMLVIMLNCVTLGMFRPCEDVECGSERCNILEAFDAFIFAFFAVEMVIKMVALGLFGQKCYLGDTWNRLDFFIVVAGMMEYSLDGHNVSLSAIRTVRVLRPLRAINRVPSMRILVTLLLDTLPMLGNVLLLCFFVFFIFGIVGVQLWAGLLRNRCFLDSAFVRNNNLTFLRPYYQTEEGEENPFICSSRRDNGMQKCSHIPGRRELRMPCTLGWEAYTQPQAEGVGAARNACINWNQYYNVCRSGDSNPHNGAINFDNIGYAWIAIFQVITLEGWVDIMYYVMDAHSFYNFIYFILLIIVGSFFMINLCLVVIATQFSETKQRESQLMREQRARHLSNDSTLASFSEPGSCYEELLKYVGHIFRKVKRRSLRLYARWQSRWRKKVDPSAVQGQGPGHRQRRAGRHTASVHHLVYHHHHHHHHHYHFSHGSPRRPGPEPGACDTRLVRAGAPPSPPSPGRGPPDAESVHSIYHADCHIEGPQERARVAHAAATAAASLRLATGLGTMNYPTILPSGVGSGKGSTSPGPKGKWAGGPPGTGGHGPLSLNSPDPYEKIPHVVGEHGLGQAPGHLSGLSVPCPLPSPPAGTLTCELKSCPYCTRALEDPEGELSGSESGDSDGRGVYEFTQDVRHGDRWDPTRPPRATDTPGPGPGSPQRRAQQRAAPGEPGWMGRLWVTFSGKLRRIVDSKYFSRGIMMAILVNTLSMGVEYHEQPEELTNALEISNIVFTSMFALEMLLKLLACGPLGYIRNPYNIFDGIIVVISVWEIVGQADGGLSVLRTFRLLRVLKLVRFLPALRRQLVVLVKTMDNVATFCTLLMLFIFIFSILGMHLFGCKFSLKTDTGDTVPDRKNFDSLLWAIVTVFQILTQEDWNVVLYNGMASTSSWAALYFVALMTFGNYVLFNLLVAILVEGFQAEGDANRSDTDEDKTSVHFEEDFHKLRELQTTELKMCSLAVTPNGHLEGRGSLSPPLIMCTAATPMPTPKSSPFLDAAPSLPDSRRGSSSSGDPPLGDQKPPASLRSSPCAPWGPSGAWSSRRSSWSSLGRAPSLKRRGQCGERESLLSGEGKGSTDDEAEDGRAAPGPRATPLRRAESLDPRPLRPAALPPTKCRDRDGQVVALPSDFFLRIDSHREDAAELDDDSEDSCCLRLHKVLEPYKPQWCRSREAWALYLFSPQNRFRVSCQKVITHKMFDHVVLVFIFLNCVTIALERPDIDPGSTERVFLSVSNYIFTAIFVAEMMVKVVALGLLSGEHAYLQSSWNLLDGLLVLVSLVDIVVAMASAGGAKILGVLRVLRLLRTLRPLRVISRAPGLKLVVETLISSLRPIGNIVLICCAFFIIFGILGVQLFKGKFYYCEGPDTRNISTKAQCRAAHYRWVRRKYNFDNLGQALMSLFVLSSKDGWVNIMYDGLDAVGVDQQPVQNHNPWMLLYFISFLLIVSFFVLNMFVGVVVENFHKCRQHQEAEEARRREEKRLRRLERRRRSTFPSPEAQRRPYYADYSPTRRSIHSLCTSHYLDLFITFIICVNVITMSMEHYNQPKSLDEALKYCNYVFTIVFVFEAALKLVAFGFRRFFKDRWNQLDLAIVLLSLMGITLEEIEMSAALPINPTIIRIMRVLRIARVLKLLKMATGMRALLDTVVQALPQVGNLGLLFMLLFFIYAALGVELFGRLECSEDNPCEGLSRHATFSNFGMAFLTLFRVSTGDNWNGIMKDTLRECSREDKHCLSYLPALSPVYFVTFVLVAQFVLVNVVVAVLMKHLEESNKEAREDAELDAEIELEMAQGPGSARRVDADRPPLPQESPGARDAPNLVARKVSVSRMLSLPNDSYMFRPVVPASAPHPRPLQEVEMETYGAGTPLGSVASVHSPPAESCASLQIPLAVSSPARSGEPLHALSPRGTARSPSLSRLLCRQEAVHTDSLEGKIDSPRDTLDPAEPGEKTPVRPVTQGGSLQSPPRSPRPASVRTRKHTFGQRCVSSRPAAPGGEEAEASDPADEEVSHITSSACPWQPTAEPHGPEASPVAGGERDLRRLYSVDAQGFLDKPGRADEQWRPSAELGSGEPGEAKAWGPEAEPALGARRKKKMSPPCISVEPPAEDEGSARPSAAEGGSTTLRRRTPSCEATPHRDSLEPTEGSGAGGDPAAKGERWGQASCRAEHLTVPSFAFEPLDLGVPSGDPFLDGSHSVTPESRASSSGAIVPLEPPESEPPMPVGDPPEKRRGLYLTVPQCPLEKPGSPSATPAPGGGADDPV
Test Details: T-type calcium channel block, whole cell patch clamp in HEK cells
Condition Info: HEK cells stably expressing human α1H; measured at 1 μM drug; mainly non-inactivated protocol
Each entry below carries its recorded pKd.
Lab note: report pKd as minus log10 of the concentration in molar units, number only.

Problem: # value lookup — system human α1H T-type channels (Homo sapiens), readout pKd, item Cc1c(C(=O)N2CCN(c3cccc(Cl)c3)CC2)sc2ncn(CC(=O)N3CCCC3)c(=O)c12 [Compound 73]
Result: 6.66

Problem: // lookup pKd | system=human α1H T-type channels (Homo sapiens) | key= Cc1c(C(=O)N2CCN(c3ccccc3F)CC2)sc2ncn(CC(=O)N3CCC(F)(F)C3)c(=O)c12 [Compound 79]
Result: 5.33

Problem: // lookup pKd | system=human α1H T-type channels (Homo sapiens) | key= Cc1c(C(=O)N2CCN(c3ccccc3)CC2)sc2ncn(CC(=O)NC3CCCC3)c(=O)c12 [Compound 41]
Result: 6.08

Problem: Form field: pKd recorded for Cc1c(C(=O)N2CCN(c3ccccc3F)CC2)sc2ncn(CC(=O)N3CCC(C(F)(F)F)CC3)c(=O)c12 [Compound 89] with human α1H T-type channels (Homo sapiens) (enter value)
Result: 6.38

Problem: For the record Cc1c(C(=O)N2CCN(c3ccccc3F)CC2)sc2ncn(C(C)C(=O)NC3CCCCC3)c(=O)c12 (stereo not drawn) [Compound 34] , what value of pKd is listed for human α1H T-type channels (Homo sapiens)?
Result: 6.36

Problem: Reported pKd for human α1H T-type channels (Homo sapiens), given Cc1c(C(=O)N2CCN(c3ccc(Cl)c(Cl)c3)CC2)sc2ncn(CC(=O)N3CCCC3)c(=O)c12 [Compound 135] ?
Result: 6.48
